Values compiled from ChEMBL document CHEMBL5036337.

- Run Description: in vivo
- Conditions: C57BL/6, mouse, ip, 500 mg/kg
Provide the reported MRT at 24 h of each item.
Give bare numbers, in min.

COc1c2ccccc2nc2occc12 = 24
O=C1CCC[C@@H]2[C@H]3CCCN4CCC[C@@H](CN12)[C@@H]34 = 318
Oc1ccc2c(c1)OCC1c3cc4c(cc3OC21)OCO4 (centres undefined) = 18

Give a short answer stating reported MRT at 24 h for `CC1=C2C(=O)O[C@@H](c3ccoc3)[C@]2(C)CCC1` .
36
